target: Gal(b1-3)Gal; experiment: glycan array binding signal (z-score within array); higher = stronger binding; settings: glycan notation: IUPAC condensed, linker removed
Shown is part of a subset that was picked to be rich in the strongest signals.
parameter: glycan array binding signal (z-score)
Lab note: record just the number, no unit beside it.

Worked set:
### Prompt Look up glycan array binding signal (z-score): AFL5 (Aspergillus fumigatus), Q4WB00 (protein) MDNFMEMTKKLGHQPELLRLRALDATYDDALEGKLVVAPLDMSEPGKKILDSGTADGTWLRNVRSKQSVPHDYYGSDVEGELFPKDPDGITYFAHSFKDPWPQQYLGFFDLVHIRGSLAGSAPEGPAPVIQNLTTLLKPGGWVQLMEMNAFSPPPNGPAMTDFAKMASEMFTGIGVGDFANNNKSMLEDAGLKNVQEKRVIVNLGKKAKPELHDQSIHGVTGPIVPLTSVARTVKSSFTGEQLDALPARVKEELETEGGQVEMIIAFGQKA
### Response -0.063

### Prompt Look up glycan array binding signal (z-score): Fap1 (Streptococcus parasanguis) (protein) KATSKGTEEKQDSVRENLDKMISEAEVLNDMAARKLITLDAEQQLELMKSLVATQSQLEATKNLIGDPNATVADLQIAYTTLGNNTQALGNELIKLNPNGQIYAVLNNTEASRAATLRSTTTGTKTTFTISDFSNGGTQYYWAGGNANNLKNPISSISAVYDSATGKISWTVEYDPTTILKSPALKTLKTYTGIYIDTSSDSKLSTPTNVLIDGAATNPVTNFYGNGSKGIEYVSKGTTKGVTKHTITFDTAFSGRANDLADLEIKMLAATTLSDPHFYEDGSKGNYGRYNGQTAPYVIANDSGTAIGGYQVSGVNADSIPSDTT
### Response -0.318

New cases:
### Prompt Look up glycan array binding signal (z-score): Pwp1 (Candida glabrata) (protein) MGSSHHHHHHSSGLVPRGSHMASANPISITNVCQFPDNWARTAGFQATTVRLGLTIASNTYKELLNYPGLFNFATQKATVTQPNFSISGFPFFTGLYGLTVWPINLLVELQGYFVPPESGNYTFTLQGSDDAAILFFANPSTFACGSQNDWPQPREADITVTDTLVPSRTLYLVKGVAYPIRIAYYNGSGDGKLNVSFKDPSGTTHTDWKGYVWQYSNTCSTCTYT
### Response 0.861
